System: U2OS
Experiment: Multiplex assay against U2OS
Type: toxicity, cell-based
Conditions: human, 24 h, 10 µM, compound concentration 10 uM, replicate 1

[
  {
    "molecule": "COc1ccc2c(c1)C(C(=O)N(Cc1ccc(N(C)C)cc1)c1ccc(C(C)C)cc1)CCC2.Cl (centres undefined)",
    "assayed_target": "U2OS",
    "Total Cell Count": 224
  },
  {
    "molecule": "Cc1ccc(-c2ccc(F)cc2COc2ccc(CCC(=O)O)cc2)cc1",
    "assayed_target": "U2OS",
    "Total Cell Count": 295
  },
  {
    "molecule": "O=C(O)c1cc2ccccc2c(Cc2c(O)c(C(=O)O)cc3ccccc23)c1O [PAMOIC ACID]",
    "assayed_target": "U2OS",
    "Total Cell Count": 314
  },
  {
    "molecule": "COc1cc(C(=O)N(CCCc2ccccc2)Cc2ccc(CC(=O)O)cc2)cc(OC)c1C",
    "assayed_target": "U2OS",
    "Total Cell Count": 318
  }
]
